experimental.system: MCL1-mCherry (human), Q07820
Sequence (Q07820 whole entry): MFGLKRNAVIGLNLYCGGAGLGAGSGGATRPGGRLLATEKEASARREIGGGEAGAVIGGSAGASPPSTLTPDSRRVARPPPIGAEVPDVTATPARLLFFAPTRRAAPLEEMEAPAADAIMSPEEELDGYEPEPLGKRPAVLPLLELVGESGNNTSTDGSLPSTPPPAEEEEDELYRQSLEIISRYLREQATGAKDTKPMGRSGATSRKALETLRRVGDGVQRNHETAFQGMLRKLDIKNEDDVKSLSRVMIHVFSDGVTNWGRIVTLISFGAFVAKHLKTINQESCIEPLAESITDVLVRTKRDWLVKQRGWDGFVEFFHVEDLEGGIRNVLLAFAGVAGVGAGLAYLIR
test: probe binding assay (PBA; single-molecule pull-down with TIRF counting); mCherry-labelled anti-apoptotic protein immobilised from HEK293T crude extract on a PEG surface (biotinylated anti-RFP antibody); crude HEK293T extract with the eGFP-labelled probe diluted to a range of eGFP concentrations, 10 min; fractional occupancy of surface baits at equilibrium fitted with n fixed to 1 or with the generalized Hill …
test.context: remark: other sources report otherwise
measured.endpoint: Kd (nM)
Please respond with the number in nM and leave the unit unwritten.

// Kd lookup, key: NOXA-eGFP, Q13794 1-54 (natural protein) MPGKKARKNAQPSPARAPAELEVECATQLRRFGDKLNFRQKLLNLISKLFCSGT
4.1
